target: T1, human C5 (human, UniProt P01031 19-673; P01031 678-1676, Beta and alpha chains are disulfide-linked and the protein is glycosylated.); assay: Biacore, captured antibody, pH 7.4, 37 C;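 further: biacore binding response of anti-C5 antibody light chain variants captured on chip with human C5 injected, ACES running buffer containing 1.2 mM CaCl₂, parent light chain antibody set to 100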
T1 construct: Either in-house recombinant C5 or plasma derived C5 (CALBIOCHEM) was used; also called recombinant human C5; plasma derived human C5
measuredParameter: % binding (parent = 100) (%)
Please reply with the bare figure in % and do not write the unit itself.

The examples below pair each entry with its known result.
INSERT INTO measurements (binder, measuredparameter, unitinfo, observed) VALUES
  ('CFP0021 21L 53N (antibody, V domains shown) VH: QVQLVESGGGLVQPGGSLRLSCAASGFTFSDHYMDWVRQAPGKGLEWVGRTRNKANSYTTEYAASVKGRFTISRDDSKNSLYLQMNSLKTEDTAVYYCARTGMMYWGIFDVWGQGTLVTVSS VL: DIQMTQSPSSLSASVGDRVTITCRASQSIEDDLAWYQQKPGKAPKLLIYHASNLQSGVPSRFSGSGSGTDFTLTISSLQPEDFATYYCQQHDSYPLTFGQGTKVEIK', '% binding (parent = 100)', '%', 97.6),
  ('CFP0015 15L 96Y (antibody, V domains shown) VH: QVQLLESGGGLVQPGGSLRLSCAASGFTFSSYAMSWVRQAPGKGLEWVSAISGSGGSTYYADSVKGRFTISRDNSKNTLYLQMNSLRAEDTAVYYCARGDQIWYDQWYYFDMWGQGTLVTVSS VL: DIQMTQSPSSLSASVGDRVTITCRASQSIEDDLAWYQQKPGKAPKLLIYEASNLQSGVPSRFSGSGSGTDFTLTISSLQPEDFATYYCQQYDSSPYTFGQGTKVEIK', '% binding (parent = 100)', '%', 7.5),
  ('CFP0021 21L 96Y (antibody, V domains shown) VH: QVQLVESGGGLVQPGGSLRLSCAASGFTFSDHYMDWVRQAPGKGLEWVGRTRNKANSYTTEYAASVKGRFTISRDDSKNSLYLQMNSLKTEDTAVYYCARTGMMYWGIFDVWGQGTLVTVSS VL: DIQMTQSPSSLSASVGDRVTITCRASQSIEDDLAWYQQKPGKAPKLLIYHASTLQSGVPSRFSGSGSGTDFTLTISSLQPEDFATYYCQQHDSYPYTFGQGTKVEIK', '% binding (parent = 100)', '%', 1.4),
  ('CFP0015 15L 30Q (antibody, V domains shown) VH: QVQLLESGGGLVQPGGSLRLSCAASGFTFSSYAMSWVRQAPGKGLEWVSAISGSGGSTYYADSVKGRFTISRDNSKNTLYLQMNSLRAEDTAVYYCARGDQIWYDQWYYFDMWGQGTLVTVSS VL: DIQMTQSPSSLSASVGDRVTITCRASQSIQDDLAWYQQKPGKAPKLLIYEASNLQSGVPSRFSGSGSGTDFTLTISSLQPEDFATYYCQQYDSSPLTFGQGTKVEIK', '% binding (parent = 100)', '%', 42.6);

query: Please report the measured % binding (parent = 100) for CFP0018 18L 96W (antibody, V domains shown) VH: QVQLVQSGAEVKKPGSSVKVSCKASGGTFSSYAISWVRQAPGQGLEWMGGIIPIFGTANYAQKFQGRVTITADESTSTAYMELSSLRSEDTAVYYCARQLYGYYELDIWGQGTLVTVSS VL: DIQMTQSPSSLSASVGDRVTITCRASQSISDDLAWYQQKPGKAPKLLIYEASSLQSGVPSRFSGSGSGTDFTLTISSLQPEDFATYYCQQYNSYPWTFGQGTKVEIK
result: 16.9
